Test: clinical
Conditions: human, plasma, oral, AUC∞, Treatment-2 (day 9): colchicine 0.6 mg + cimetidine 800 mg after double dose day 4, once daily days 5-8, fasted; mean
Property: AUC(0-inf) (ng·h/mL)

> print(dat)
                              smiles.string  unit.abbrev  reported.measurement
1  COc1cc2c(c(OC)c1OC)-c1ccc(OC)c(=O)cc1[C@@H](NC(C)=O)CC2      ng·h/mL                    21

----------
Test: Colchicine pharmacokinetics coadministered with fluconazole
Details: male, human, in vivo, AUC∞, Treatment-2 (day 9): colchicine 0.6 mg + fluconazole 200 mg after double dose day 4, once daily days 5-8, fasted; mean
Property: AUC(0-inf) (ng·h/mL)

> print(dat)
                              smiles.string    property  reported.measurement
1  COc1cc2c(c(OC)c1OC)-c1ccc(OC)c(=O)cc1[C@@H](NC(C)=O)CC2  AUC(0-inf)                  25.6

----------
Assay: Colchicine pharmacokinetics coadministered with voriconazole
Conditions: male, human, in vivo, AUC∞, Treatment-2 (day 9): colchicine 0.6 mg + voriconazole 200 mg after twice daily days 4-8, fasted; mean
Property: AUC(0-inf) (ng·h/mL)

> print(dat)
                              smiles.string    property  unit.abbrev  reported.measurement
1  COc1cc2c(c(OC)c1OC)-c1ccc(OC)c(=O)cc1[C@@H](NC(C)=O)CC2  AUC(0-inf)      ng·h/mL                  24.1

----------
Experiment: Colchicine pharmacokinetics coadministered with fluconazole
Settings: male, human, in vivo, AUCT, Treatment-2 (day 9): colchicine 0.6 mg + fluconazole 200 mg after double dose day 4, once daily days 5-8, fasted; mean
Property: AUC(0-t) (ng·h/mL)

> print(dat)
                              smiles.string  unit.abbrev  reported.measurement
1  COc1cc2c(c(OC)c1OC)-c1ccc(OC)c(=O)cc1[C@@H](NC(C)=O)CC2      ng·h/mL                  21.3

----------
Test: Colchicine pharmacokinetics coadministered with fluconazole
Details: male, human, in vivo, 0.6 mg, AUC∞ GEOMETRIC LSMEANS, Treatment-1: colchicine 0.6 mg alone; fluconazole study
Description: The inhibitor dosage form was an oral 200 mg tablet of Diflucan® (fluconazole, from Pfizer). The fluconazole trial differed from the Example 2 protocol as follows.
Property: AUC(0-inf) (ng·h/mL)

> print(dat)
                                   compound  reported.measurement
1  COc1cc2c(c(OC)c1OC)-c1ccc(OC)c(=O)cc1[C@@H](NC(C)=O)CC2 [Colchicine]                    17

----------
Experiment: Colchicine pharmacokinetics coadministered with voriconazole
Conditions: male, human, in vivo, AUCT, Treatment-2 (day 9): colchicine 0.6 mg + voriconazole 200 mg after twice daily days 4-8, fasted; mean
Property: AUC(0-t) (ng·h/mL)

> print(dat)
                              smiles.string  property  unit.abbrev  reported.measurement
1  COc1cc2c(c(OC)c1OC)-c1ccc(OC)c(=O)cc1[C@@H](NC(C)=O)CC2  AUC(0-t)      ng·h/mL                  20.7

----------
Assay: clinical
Conditions: human, plasma, oral, AUC∞ GEOMETRIC LSMEANS, Treatment-2: colchicine 0.6 mg + cimetidine
Property: AUC(0-inf) (ng·h/mL)

> print(dat)
                              smiles.string    property  reported.measurement
1  COc1cc2c(c(OC)c1OC)-c1ccc(OC)c(=O)cc1[C@@H](NC(C)=O)CC2  AUC(0-inf)                  19.3

----------
Experiment: Colchicine pharmacokinetics coadministered with voriconazole
Conditions: male, human, in vivo, 0.6 mg, AUCT, Treatment-1 (day 1): colchicine 0.6 mg alone, fasted; voriconazole study; mean
Property: AUC(0-t) (ng·h/mL)

> print(dat)
                              smiles.string  property  reported.measurement
1  COc1cc2c(c(OC)c1OC)-c1ccc(OC)c(=O)cc1[C@@H](NC(C)=O)CC2  AUC(0-t)                  19.6

----------
Assay: Colchicine pharmacokinetics coadministered with fluconazole
Settings: male, human, in vivo, Cmax GEOMETRIC LSMEANS, Treatment-2: colchicine 0.6 mg + fluconazole
Property: Cmax

> print(dat)
                              smiles.string  reported.measurement
1  COc1cc2c(c(OC)c1OC)-c1ccc(OC)c(=O)cc1[C@@H](NC(C)=O)CC2            2.05 ng/mL

----------
Assay: clinical
Details: male, human, in vivo, 0.6 mg, AUCT, Treatment-1 (day 1): colchicine 0.6 mg alone, fasted; propafenone study; mean
Property: AUC(0-t) (ng·h/mL)

> print(dat)
                              smiles.string  property  reported.measurement
1  COc1cc2c(c(OC)c1OC)-c1ccc(OC)c(=O)cc1[C@@H](NC(C)=O)CC2  AUC(0-t)                  16.6

----------
Assay: clinical
Conditions: human, plasma, oral, 0.6 mg, Cmax, Treatment-1 (day 1): colchicine 0.6 mg alone, fasted; cimetidine study; mean
Property: Cmax (ng/mL)

> print(dat)
                              smiles.string  property  unit.abbrev  reported.measurement
1  COc1cc2c(c(OC)c1OC)-c1ccc(OC)c(=O)cc1[C@@H](NC(C)=O)CC2      Cmax        ng/mL                     3

----------
Assay: clinical
Conditions: male, human, in vivo, 0.6 mg, Cmax GEOMETRIC LSMEANS, Treatment-1: colchicine 0.6 mg alone; propafenone study
Property: Cmax (ng/mL)

> print(dat)
                              smiles.string  property  reported.measurement
1  COc1cc2c(c(OC)c1OC)-c1ccc(OC)c(=O)cc1[C@@H](NC(C)=O)CC2      Cmax                  2.05
